# credit: patent US7678913B2

molecular target: human plasma protein factor Xa (Homo sapiens, UniProt P00742); construct: measure proteolytic activity of the enzyme (factor Xa); purchased Haematologic Technologies (Essex Junction, Vt.); host or cells: human plasma; assay: Factor Xa IC50 determination (cleavage of chromogenic substrate S-2765); type: biochemical; settings: fXa 1 nM, S-2765 100 μM, Tris buffered saline pH 7.4, room temperature
Sequence (P00742 235-488 limits assumed): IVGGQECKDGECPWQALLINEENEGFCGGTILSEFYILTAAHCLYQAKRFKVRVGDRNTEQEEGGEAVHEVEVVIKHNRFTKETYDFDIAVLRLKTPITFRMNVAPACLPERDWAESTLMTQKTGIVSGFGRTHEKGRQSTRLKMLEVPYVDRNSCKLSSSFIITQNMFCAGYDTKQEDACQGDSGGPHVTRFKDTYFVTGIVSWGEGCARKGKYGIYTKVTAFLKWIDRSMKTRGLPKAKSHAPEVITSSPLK
Sequence (P00742 41-179 partner limits assumed): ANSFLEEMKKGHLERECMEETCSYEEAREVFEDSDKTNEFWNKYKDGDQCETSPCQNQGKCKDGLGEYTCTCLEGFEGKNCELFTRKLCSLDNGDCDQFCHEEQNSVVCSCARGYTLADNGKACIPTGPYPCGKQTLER
pIC50: −log10 of the molar value.
Value Kind: pIC50

Entry `CN1CCN=C1c1ccc(NC(=O)[C@@H](NC(=O)Nc2ccc(Cl)cc2)c2ccccc2)cc1` — recorded pIC50 = ≥ 7.00

Could you report pIC50 for every entry in the following list?
1. O=C(Nc1ccc(Cl)cc1)N[C@@H](C(=O)N1CCC(N2CCOCC2=O)CC1)c1ccccc1
2. CN1CCC(N2CCN(C(=O)C(NC(=O)Nc3ccc(Cl)cc3)c3ccccc3F)CC2)CC1 (centres unmarked)
3. CNC(=O)CC(NC(=O)Nc1ccc(Cl)cc1)C(=O)Nc1ccc(C2=NCCN2C)cc1 (centres unmarked)
4. CN(C)Cc1ccccc1-c1ccc(NC(=O)C(NC(=O)Nc2ccc(Br)cc2)c2ccccc2F)c(F)c1 (centres unmarked)

RESULT:
≥ 7.00
≥ 7.00
6.30 to 7.00
≥ 7.00

---

target: human plasma protein factor Xa (Homo sapiens, UniProt P00742); construct: measure proteolytic activity of the enzyme (factor Xa); test: Factor Xa IC50 determination (cleavage of chromogenic substrate S-2765); details: fXa 1 nM, S-2765 100 μM, Tris buffered saline pH 7.4, room temperature
I'd be grateful if you could share measured IC50 for these entries.

The following compounds have reported results that may help.
O=C(Nc1ccc(Cl)cc1)NC(C(=O)NCC1CCNCC1)c1ccccc1F (centres unmarked) has a reported IC50 of ≥ 0.5 µM

Measured IC50, `O=C(Nc1ccc(Cl)cc1)N[C@@H](C(=O)N1CCC(n2ccccc2=O)CC1)c1ccccc1` : ≤ 0.1 µM

Looking up CN1CCC(N2CCN(C(=O)C(NC(=O)Nc3ccc(Cl)cc3)c3ccccc3I)CC2)CC1 (centres unmarked) , I found its IC50 recorded as ≤ 0.1 µM

Lab book: IC50 of CN1CCN=C1c1ccc(NC(=O)C(CC(N)=O)NC(=O)Nc2ccc(Cl)cc2)cc1 (centres unmarked) noted as ≥ 0.5 µM

// IC50 lookup, compound = CN(C)C(=N)c1ccc(NC(=O)C(NC(=O)Nc2ccc(Cl)cc2)c2cccs2)cc1 (centres unmarked) , result: ≤ 0.1 µM

So, Cc1ccccc1C(NC(=O)Nc1ccc(Cl)cc1)C(=O)Nc1ccc(C(=N)N2CCCC2)cc1 (centres unmarked) ? Its IC50 was ≤ 0.1 µM

// Cc1ccccc1C(NC(=O)Nc1ccc(Cl)cc1)C(=O)Nc1ccc(N2CCCN(C)CC2)cc1 (centres unmarked) : IC50 value = ≤ 0.1 µM

In plain terms, N=C(c1ccc(NC(=O)C(NC(=O)Nc2ccc(Cl)cc2)c2ccccc2I)cc1)N1CCCC1 (centres unmarked) has a documented IC50 of ≤ 0.1 µM

Please give IC50, item by item, for the list that follows.
1. Cc1ccccc1C(NC(=O)Nc1ccc(Cl)cc1)C(=O)N1CCC(N2CCOCC2=O)CC1 (centres unmarked)
2. CN(C)C(=O)CC(NC(=O)Nc1ccc(Cl)cc1)C(=O)Nc1ccc(C2=NCCN2C)cc1 (centres unmarked)
3. CN(C)C(=N)c1ccc(NC(=O)C(NC(=O)Nc2ccc(Cl)cc2)c2ccccc2Br)cc1 (centres unmarked)
4. CN1CCN=C1c1ccc(NC(=O)C(Cc2c[nH]c3ccccc23)NC(=O)Nc2ccc(Cl)cc2)cc1 (centres unmarked)
5. CN1CCC(N2CCN(C(=O)C(NC(=O)Nc3ccc(Cl)cc3)c3ccccc3Cl)CC2)CC1 (centres unmarked)
6. CN1CCN=C1c1ccc(NC(=O)C(NC(=O)Nc2ccc(Cl)cc2)c2cccs2)cc1 (centres unmarked)
7. CC#CCC(NC(=O)Nc1ccc(Cl)cc1)C(=O)Nc1ccc(C2=NCCN2C)cc1 (centres unmarked)
8. CN1CCC(N2CCN(C(=O)C(NC(=O)Nc3ccc(Cl)cc3)c3ccccc3Br)CC2)CC1 (centres unmarked)

RESULT:
1: 0.1 to 0.5 µM; 2: ≥ 0.5 µM; 3: ≤ 0.1 µM; 4: ≤ 0.1 µM; 5: ≤ 0.1 µM; 6: ≤ 0.1 µM; 7: ≤ 0.1 µM; 8: ≤ 0.1 µM

Hello, I would appreciate it if you could give IC50 for each entry below.
1. CSc1ccccc1C(NC(=O)Nc1ccc(Cl)cc1)C(=O)Nc1ccc(-c2cccc[n+]2[O-])cc1 (centres unmarked)
2. CN1CCN=C1c1ccc(NC(=O)[C@H](NC(=O)Nc2ccc(Cl)cc2)c2ccccc2)cc1
3. COc1ccccc1C(NC(=O)Nc1ccc(Cl)cc1)C(=O)N1CCN(C2CCCN(C)CC2)CC1 (centres unmarked)

RESULT:
1: ≤ 0.1 µM; 2: ≤ 0.1 µM; 3: ≤ 0.1 µM

Dear colleague, could you please provide IC50 for the compounds listed below?
1. C#Cc1ccc(NC(=O)NC(C(=O)Nc2ccc(C3=NCCN3C)cc2)c2cccs2)cc1 (centres unmarked)
2. O=C(Nc1ccc(Cl)cc1)NC(C(=O)Nc1ccc(-c2cc[n+]([O-])cc2)cc1)c1ccccc1F (centres unmarked)

RESULT:
["0.1 to 0.5 µM", "0.1 to 0.5 µM"]

Here are 7 compounds. What values of IC50 were reported for them?
1. O=C(Nc1ccc(Cl)cc1)NC(C(=O)N1CCC(N2CCOCC2=O)CC1)c1ccccc1Cl (centres unmarked)
2. COc1ccccc1C(NC(=O)Nc1ccc(Cl)cc1)C(=O)NC1CCN(C(C)C)CC1 (centres unmarked)
3. CN1CCN=C1c1ccc(NC(=O)[C@H](CC(=O)OCc2ccccc2)NC(=O)Nc2ccc(Cl)cc2)cc1
4. CN1CCN=C1c1ccc(NC(=O)C(NC(=O)Nc2ccc(Cl)cc2)c2cccc(Cl)c2)cc1 (centres unmarked)
5. COc1ccccc1C(NC(=O)Nc1ccc(Cl)cc1)C(=O)N1CCN(C2CCN(C)CC2)CC1 (centres unmarked)
6. COc1ccccc1C(NC(=O)Nc1ccc(Cl)cc1)C(=O)Nc1ccc(-c2cccc[n+]2[O-])cc1 (centres unmarked)
7. CCN(C)C(=N)c1ccc(NC(=O)C(NC(=O)Nc2ccc(Cl)cc2)c2ccccc2)cc1 (centres unmarked)

RESULT:
1. ≤ 0.1 µM
2. ≥ 0.5 µM
3. ≤ 0.1 µM
4. ≤ 0.1 µM
5. ≤ 0.1 µM
6. ≤ 0.1 µM
7. ≤ 0.1 µM
